// provenance: ChEMBL document CHEMBL3102696

Hi! I'm sharing some pIC50 results obtained with Botulinum neurotoxin type A (Clostridium botulinum).
Sequence (P0DPI0 2-448 limits assumed): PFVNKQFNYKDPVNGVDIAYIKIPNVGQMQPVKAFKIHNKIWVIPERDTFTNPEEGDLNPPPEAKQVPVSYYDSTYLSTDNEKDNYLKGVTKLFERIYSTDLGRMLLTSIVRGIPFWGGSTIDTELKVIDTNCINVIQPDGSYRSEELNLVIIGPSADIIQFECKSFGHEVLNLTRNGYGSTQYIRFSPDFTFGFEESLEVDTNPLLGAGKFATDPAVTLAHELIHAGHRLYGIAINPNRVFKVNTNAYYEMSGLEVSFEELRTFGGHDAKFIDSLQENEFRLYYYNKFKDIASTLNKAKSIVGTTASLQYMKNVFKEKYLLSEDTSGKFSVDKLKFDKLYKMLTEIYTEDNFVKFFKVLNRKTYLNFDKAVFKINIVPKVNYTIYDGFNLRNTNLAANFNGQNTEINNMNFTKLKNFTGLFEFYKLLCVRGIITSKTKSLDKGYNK
Keep it numeric: pIC50 is minus log10 of the concentration in mol/L.

Sample records with pIC50:
{"compound": "C=CCOCCC(CC(=O)NO)c1ccc(Cl)cc1Cl (stereo not given)", "study.system": "Botulinum neurotoxin type A (Clostridium botulinum)", "pIC50": 5.27}
{"compound": "O=C(CC(CCOCc1ccccc1)c1ccc(Cl)cc1Cl)NO (stereo not given)", "study.system": "Botulinum neurotoxin type A (Clostridium botulinum)", "pIC50": 5.54}
{"compound": "COc1cc(F)ccc1NC(=O)CC(CC(=O)NO)c1ccc(Cl)cc1Cl (stereo not given)", "study.system": "Botulinum neurotoxin type A (Clostridium botulinum)", "pIC50": 5.96}

Indicate the recorded pIC50 value for this compound: O=C(CC(CCOCCc1ccc(F)cc1)c1ccc(Cl)cc1Cl)NO (stereo not given)
6.01

State its pIC50 for this compound: O=C(CC(CC(=O)Nc1ccc(Br)cc1)c1ccc(Cl)cc1Cl)NO (stereo not given)
5.19

Answer with reported pIC50 of O=C(CC(CC(=O)NCCC1CC1)c1ccc(Cl)cc1Cl)NO (stereo not given)
5.04
